Tested on: NCI-H23 lung
Assay: NCI-60 one-dose screen, 48 h
Settings: 10 µM unless noted
Procedure: Growth inhibition of the NCI-H23 human Non-Small Cell Lung tumor cell line is measured as a screen for anti-cancer activity. Cells are grown in 96 well plates and exposed to the test compound for 48 hours. Compounds are tested at a single concentration, which is 10^-5 M for most compounds. The reported endpoint is percent growth (GI% or GIPRCNT), where numbers from 0 - 100% represent growth inhibition, and numbers from -100% - 0 represent cell death. […]
This is part of a sample that, as a whole, favours compounds with a hit. Of some 83,000 tested, about 20% had one in any assay. Active and inactive are the calls of the source. The calls were made as follows: active = growth percent below 10; inactive = the rest.
Select the correct class. Options are TRUE (active), FALSE (inactive) and nothing else.

>>> assigned_class("C#Cc1cc2c(N)c(C(=O)c3cc(OC)c(OC)c(OC)c3)[nH]c2cc1OC")
"FALSE"
>>> assigned_class("O=c1[nH]c2c3ccncc3cc(-c3cccc(Cl)c3)c2c2cnccc12")
"FALSE"
>>> assigned_class("C/C(=C(/c1ccccc1)c1ccc(N2C(=O)c3cccc4c(NCc5ccccc5)ccc(c34)C2=O)cc1)c1ccccc1")
"FALSE"
>>> assigned_class("O=C(N/N=C\\c1ccccc1O)C1CC1")
"FALSE"
>>> assigned_class("O=[N+]([O-])c1cccc(/C=N\\Nc2ccccc2)c1")
"FALSE"
>>> assigned_class("Cc1cc(Cl)nc(N(CCNc2ccnc3cc(Cl)ccc23)Cc2ccco2)n1")
"FALSE"

Q: # fetch the recorded call for COc1cnc2c(c1)C(=O)c1c-2n(CCCN2CCN(CCO)CC2)c(=O)c2cc([N+](=O)[O-])ccc12 here
A: TRUE

Q: Record lookup: outcome of this test for Cc1nn(-c2ccc(Br)cc2)c2nc3[nH]c(=O)[nH]c(=O)c3nc12 ?
A: FALSE

Q: For Cc1ccc(Cc2cnc(NC(=O)/C=C/c3cccc(C)c3)s2)cc1 , what call appears in the results of this test?
A: FALSE

Q: Lab log entry: CCCCC[C@H]1C/C=C2/C(=O)C=C[C@@H]2C/C=C\CCCC(=O)O[C@@H](CCCCC)C/C=C2/C(=O)C=C[C@@H]2C/C=C\CCCC(=O)O1 — outcome as called in the assay?
A: TRUE

Q: How did this test come out for Cn1cc(-c2nc(-c3c[nH]c4ncccc34)cs2)c2cc(Br)ccc21 ?
A: FALSE

Q: Please indicate how the test categorized COc1cc(-c2cc3cc(O)ccc3oc2=O)cc(OC)c1OC .
A: FALSE

Q: What did this assay record as the result for CCCCC[C@H]1C/C=C2/C(=O)C(Cl)=C[C@@H]2C/C=C\CCCC(=O)O[C@@H](CCCCC)C/C=C2/C(=O)C(Cl)=C[C@@H]2C/C=C\CCCC(=O)O1 ?
A: TRUE

Q: Please share the test call associated with COc1cc(-c2cc(-c3nc4ccc(F)cc4[nH]3)[nH]n2)cc(OC)c1OC .
A: FALSE

Q: Call for entry C[C@H]1[C@H]2C3=CC[C@@H]4[C@@]5(C)C/C(=C/c6ccco6)C(=O)C(C)(C)[C@@H]5CC[C@@]4(C)[C@]3(C)CC[C@@]2(C(=O)N2CCOCC2)CC[C@@H]1C :
A: FALSE

====

system: UO-31 renal; assay: NCI-60 one-dose screen, 48 h (100 = growth as untreated, 0 = no growth, -100 = all killed); conditions: 10 µM unless noted
The panel holds about 83,000 compounds, 20% with a hit somewhere; the sample as a whole holds those more often.
Class field: derived from growth; ranges LOW: < -30%; MEDIUM: ≥ -30% and < 50%; HIGH: ≥ 50%

# example entries with known answers
>>> assigned_class("C/C(=N\\Nc1ccc2ccccc2n1)c1ccccn1")
"LOW"
>>> assigned_class("c1ccc2[nH]c(-c3ccc(Nc4nc(N5CCCCC5)nc(N5CCOCC5)n4)cc3)nc2c1")
"LOW"
>>> assigned_class("COc1cccc(-c2nn(-c3ccccc3)cc2-c2ccnc(NCCCN)c2)c1")
"HIGH"
>>> assigned_class("Brc1ccc(Cn2nnnc2-c2ccn(-c3ccccc3)n2)cc1")
"HIGH"
>>> assigned_class("COc1cc2c3c(c4c5ccccc5[nH]c4c2c(OC)c1OC)C(=O)N(O)C3=O")
"MEDIUM"
>>> assigned_class("Nc1ccccc1NC(=O)c1ccc(CN2CCC/C(=C\\c3ccccn3)C2=O)cc1")
"MEDIUM"
>>> assigned_class("CCC(c1ccc(OC)cc1)C(CC)c1ccc(O)c(CN2CCCCC2)c1 (configuration not stated)")
"MEDIUM"
>>> assigned_class("O=S(=O)(NCCNc1cc(-c2cn(-c3ccccc3)nc2-c2cccc(O)c2)ccn1)c1ccc(F)cc1")
"MEDIUM"
>>> assigned_class("Cn1c(=O)c2c(ncn2CC(=O)Nc2ccc(S(N)(=O)=O)cc2)n(C)c1=O")
"HIGH"
>>> assigned_class("O=C1NC(=Nc2ccc(S(=O)(=O)Nc3nccs3)cc2)S/C1=C\\c1coc2ccccc2c1=O")
"HIGH"

Q: Hey, which category is CC(=O)Oc1ccccc1C(=O)/C=C/c1cccc([N+](=O)[O-])c1 in, do you know?
A: MEDIUM

Q: Please report the category associated with Oc1ccccc1/C=N\NC(=S)Nc1ccc(F)cc1 , nothing else.
A: MEDIUM

Q: For this compound, which bin applies? Cc1cc(N(CCCNc2ccnc3cc(Cl)ccc23)Cc2ccco2)nc(N2CCN(C)CC2)n1
A: MEDIUM

Q: Lab note: sort CCN1CCN(C(=O)[C@@]2(C)CC[C@]3(C)CC[C@]4(C)C(=CC(=O)[C@@H]5[C@@]6(C)CC[C@H](OC7C[C@@H](O)[C@@H](O)C(C)O7)C(C)(C)[C@@H]6CC[C@]54C)[C@@H]3C2)CC1 (some centres not stated) into the matching growth band.
A: LOW

Q: # bin label for CN1CCN(c2ccc3nc(-c4[nH]ncc4Nc4ncnc5c4OCCCN5)[nH]c3c2)CC1
A: LOW

Q: For O=C(/C=C\c1ccc2c(c1)OCO2)/C=C/c1ccc2c(c1)OCO2 , which growth bin applies?
A: HIGH

Q: Place this compound in its band: COc1cc(-c2cc(-c3nc4ccccc4[nH]3)[nH]n2)cc(OC)c1OC
A: MEDIUM

Q: Assign a bin to COc1cccc2c1C(=O)c1c(O)c3c(c(O)c1C2=O)C[C@@](O)(C(=O)CO)C[C@@H]3OC1C[C@H](N)[C@H](O)[C@H](C)O1 (some centres not stated)
A: LOW

Q: Entry C=C1C(=O)O[C@H]2[C@H]1CC/C(COC(=O)NCc1c[nH]c3ccccc13)=C\CC[C@@]1(C)O[C@@H]21 belongs to which category?
A: LOW

Q: Note: place this compound into its band. Item: O=C1c2cccc3cccc(c23)C(=O)N1CC#Cc1ccc2c3c(cccc13)C(=O)N(CCN1CCNCC1)C2=O
A: HIGH

Q: Sort into band: CCN1CCN(C(=O)[C@]23CCC(C)(C)C[C@@H]2C2=CC[C@@H]4[C@@]5(C)C/C(=C/c6ccncc6)C(=O)C(C)(C)[C@@H]5CC[C@@]4(C)[C@]2(C)CC3)CC1
A: LOW

Q: Assign a bin to Cc1cccc(C)c1NC(=O)CSC(=S)N1CCCCC1
A: HIGH

Data credit: PubChem BioAssay (NCI)
